Numbers sourced from paper PMC4171606.

# Test system: 26S proteasome semipurified from RS4;11 cells, peptidyl glutamyl peptide hydrolyzing (PGPH) activity
# procedure.text: Proteasome activity on semipurified cell extract (fluorogenic substrate)
# Assay type: biochemical, human
# condition.details: RS4;11 extract, 60 min at 37 °C, cell-free
pIC50: −log10 of the molar value.
value.kind: pIC50

Item: F[P-](F)(F)(F)(F)F.OCP(CO)CO.OCP(CO)CO.OCP(CO)CO.OCP(CO)CO.[Cu+] [CP, [Cu(thp)4][PF6]] | pIC50: ~5.00

====

# System: 26S proteasome semipurified from RS4;11 cells, chymotrypsin like (CT) activity
# procedure.text: Proteasome activity on semipurified cell extract (fluorogenic substrate)
# Format: biochemical, human
# condition.details: RS4;11 extract, 60 min at 37 °C, cell-free
pIC50: −log10 of the molar value.
value.kind: pIC50

Item: F[P-](F)(F)(F)(F)F.OCP(CO)CO.OCP(CO)CO.OCP(CO)CO.OCP(CO)CO.[Cu+] [CP, [Cu(thp)4][PF6]] | pIC50: ~4.74
